B1: CPEB3 Ribozyme (parent)
chain: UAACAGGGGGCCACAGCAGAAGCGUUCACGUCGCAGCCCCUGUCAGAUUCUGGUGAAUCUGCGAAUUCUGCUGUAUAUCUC

Variants of: B1
Assay: self-cleavage, relative activity (ratio to wild type); higher = more cleavage; in vitro, sequencing
Assign class by self-cleavage: not lower than 0.4 means Y; lower than 0.4 means N.

Some solved cases for reference:
I'd appreciate it if you could say whether U49A U72C has self-cleavage at least equal to 0.4. Y

Is self-cleavage at least 0.4? Consider C27U U78A N

Has A45G C50U a recorded self-cleavage greater than or equal to 0.4? Y

Answer whether self-cleavage of A15C C17U is greater than or equal to 0.4. N

API: above_or_equal(metric=self-cleavage, cutoff=0.4) for item G24C U51A N

Continuing:
Determine whether this variant has self-cleavage no lower than 0.4: C11G U31A N

For this variant, is measured self-cleavage 0.4 or higher? C14U U76C Y

Please indicate if the recorded self-cleavage for C39U U76C meets or exceeds 0.4. Y

For this variant, is measured self-cleavage 0.4 or higher? U25C G61C N

I'd appreciate it if you could say whether A77U U80C has self-cleavage at least equal to 0.4. Y

Has A5C U60C a recorded self-cleavage greater than or equal to 0.4? Y

// inclusive: self-cleavage at least 0.4? input: C23G A64U N
